All figures here come from paper PMC9304199.

- measured target: G551D‐CFTR (Homo sapiens, UniProt P13569, G551D)
- test description: Single-channel recording in excised inside-out membrane patches, G551D‐CFTR
- Type: biochemical
- Parameters: expressed in transfected cells; BHK cells from MD Amaral
- condition notes: G551D‐CFTR Cl− channels; excised inside-out patches; 23°C; data normalised to ivacaftor 1 μM; read-out: EC50 (μM) (95% CI)
- Excerpt: For CFTR studies using automated electrophysiology and single-channel recording, we used baby hamster kidney (BHK) cells (RRID:CVCL_1915) and human embryonic kidney (HEK) 293 cells (RRID:CVCL_0045) stably expressing wild-type human CFTR and the CFTR variants F508del- and […] et al., [2002]; Xu et al., [2014]). […] Therefore, Po values for G551D-CFTR are expressed as apparent Po (Po(app)) values. […]

- compound: "CC(C)(C)c1cc(C(C)(C)C)c(NC(=O)c2c[nH]c3ccccc3c2=O)cc1O [ivacaftor, reference compound]"
  EC50, µM: 0.036
- compound: "Cc1ncccc1CNC(=O)c1ccc2c(c1)CC[C@H]1C[C@](O)(CCC(F)(F)F)CC[C@]21Cc1ccccc1 (racemic)"
  EC50, µM: 0.17

----------
- measured target: F508del‐CFTR (Homo sapiens, UniProt P13569, DEL508-508)
- Sequence (P13569 with tags, fused parts or gaps DEL508-508): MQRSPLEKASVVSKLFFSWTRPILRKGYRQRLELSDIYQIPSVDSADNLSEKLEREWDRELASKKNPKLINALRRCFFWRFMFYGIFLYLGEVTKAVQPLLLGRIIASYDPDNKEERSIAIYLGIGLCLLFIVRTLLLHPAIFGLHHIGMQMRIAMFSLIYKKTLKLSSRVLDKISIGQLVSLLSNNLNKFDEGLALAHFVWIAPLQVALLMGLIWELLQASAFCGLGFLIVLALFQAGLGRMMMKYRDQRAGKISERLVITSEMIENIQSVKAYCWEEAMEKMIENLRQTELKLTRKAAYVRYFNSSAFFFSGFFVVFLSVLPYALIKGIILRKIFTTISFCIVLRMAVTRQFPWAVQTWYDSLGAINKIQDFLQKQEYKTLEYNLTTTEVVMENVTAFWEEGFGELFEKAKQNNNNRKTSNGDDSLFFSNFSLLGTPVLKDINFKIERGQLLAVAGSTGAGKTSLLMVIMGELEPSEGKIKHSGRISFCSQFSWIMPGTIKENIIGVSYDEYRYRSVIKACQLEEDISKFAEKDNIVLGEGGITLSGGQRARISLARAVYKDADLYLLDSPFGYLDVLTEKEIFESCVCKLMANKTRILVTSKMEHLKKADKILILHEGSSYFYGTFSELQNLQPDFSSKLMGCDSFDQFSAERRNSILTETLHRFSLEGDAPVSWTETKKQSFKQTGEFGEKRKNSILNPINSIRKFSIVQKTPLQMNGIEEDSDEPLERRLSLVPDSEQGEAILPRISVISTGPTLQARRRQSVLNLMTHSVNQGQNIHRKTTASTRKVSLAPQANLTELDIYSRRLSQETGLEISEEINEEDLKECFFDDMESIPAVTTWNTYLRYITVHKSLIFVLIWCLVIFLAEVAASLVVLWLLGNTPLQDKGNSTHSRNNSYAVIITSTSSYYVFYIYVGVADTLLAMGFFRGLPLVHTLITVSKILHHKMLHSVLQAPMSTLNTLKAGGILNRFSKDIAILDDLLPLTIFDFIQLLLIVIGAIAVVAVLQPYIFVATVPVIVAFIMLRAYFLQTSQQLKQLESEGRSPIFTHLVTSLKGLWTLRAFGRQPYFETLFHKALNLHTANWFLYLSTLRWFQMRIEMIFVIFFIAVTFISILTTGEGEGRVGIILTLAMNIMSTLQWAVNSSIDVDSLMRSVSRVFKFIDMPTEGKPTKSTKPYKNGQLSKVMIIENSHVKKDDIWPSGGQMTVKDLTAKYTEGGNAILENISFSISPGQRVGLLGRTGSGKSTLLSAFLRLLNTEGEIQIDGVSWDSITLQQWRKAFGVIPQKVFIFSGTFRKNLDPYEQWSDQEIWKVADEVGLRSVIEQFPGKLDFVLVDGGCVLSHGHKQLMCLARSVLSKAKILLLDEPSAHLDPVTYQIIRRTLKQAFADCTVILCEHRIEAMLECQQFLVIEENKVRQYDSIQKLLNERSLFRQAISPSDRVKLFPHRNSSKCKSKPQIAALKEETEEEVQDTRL
- test description: Ussing chamber apical Cl− current (ICl apical) in FRT epithelia expressing F508del‐CFTR
- Format: cell-based
- Set-up: assays at Charles River Laboratories (ChanTest)
- condition notes: F508del‐CFTR FRT epithelia; lumacaftor (5 μM) rescued; ICl apical; 27°C; read-out: EC50 (μM) (95% CI)

- molecule: "CC(C)(C)c1cc(C(C)(C)C)c(NC(=O)c2c[nH]c3ccccc3c2=O)cc1O [ivacaftor, reference compound]"
  result operator: "="
  EC50 (µM): 0.002
- molecule: "Cc1ncccc1CNC(=O)c1ccc2c(c1)CC[C@H]1C[C@](O)(CCC(F)(F)F)CC[C@]21Cc1ccccc1 (racemic)"
  result operator: ">"
  EC50 (µM): 0.5

----------
- measured target: native CFTR, genotype F508del/F508del (Homo sapiens, UniProt P13569, DEL508-508)
- Construct: For functional studies of native CFTR, we used primary cultures of human bronchial epithelial cells; host or cells: primary human bronchial epithelial cells, F508del/F508del, air-liquid interface cultures
- Sequence (P13569 with tags, fused parts or gaps DEL508-508): as above
- test description: Ussing chamber CFTR-mediated short-circuit current (Isc) in F508del/F508del human bronchial epithelial cells
- Type: cell-based
- condition notes: F508del/F508del epithelia of hBE cells; basal F508del‐CFTR expression; Isc; 27°C; read-out: EC50 (μM) (95% CI)
measured property: EC50

- compound: "CC(C)(C)c1cc(C(C)(C)C)c(NC(=O)c2c[nH]c3ccccc3c2=O)cc1O [ivacaftor, reference compound]"
  measured property: "EC50"
  value observed: "0.002 µM"
- compound: "Cc1ncccc1CNC(=O)c1ccc2c(c1)CC[C@H]1C[C@](O)(CCC(F)(F)F)CC[C@]21Cc1ccccc1 (racemic)"
  measured property: "EC50"
  value observed: "0.062 µM"

----------
- measured target: G551D‐CFTR (Homo sapiens, UniProt P13569, G551D)
- test description: Ussing chamber apical Cl− current (ICl apical) in FRT epithelia expressing G551D‐CFTR
- Assay type: cell-based
- Parameters: assays at Charles River Laboratories (ChanTest)
- condition notes: G551D‐CFTR FRT epithelia; ICl apical; 27°C; read-out: EC50 (μM) (95% CI)
Overview of recorded EC50 for various molecules
measured property: EC50 (µM)

- molecule: "CC(C)(C)c1cc(C(C)(C)C)c(NC(=O)c2c[nH]c3ccccc3c2=O)cc1O [ivacaftor, reference compound]"
  measured property: "EC50"
  value observed: 0.003
- molecule: "Cc1ncccc1CNC(=O)c1ccc2c(c1)CC[C@H]1C[C@](O)(CCC(F)(F)F)CC[C@]21Cc1ccccc1 (racemic) [CP‐628006]"
  measured property: "EC50"
  value observed: 1.68
